Here the recorded cleaved RNA product abundance is given for each entry.
test system: Bacillus subtilis; test: cleaved RNA product abundance (RNA/gDNA barcode ratio) relative to median wild-type variant (ratio to wild type); higher = more accumulation of the downstream cleavage product; settings: experiment (reporter, strain, medium): exp 6: tetM reporter, strain 168; cleavage site: cggR-gapA (positions -7 to +36 mutated)

- sequence text: "ACAGACGAAGGAGCCGCAAAGAAGTTATTAAGGGATGGATAATCCCTCAATATAAATATCTCTCACTTATTTAAA"
  cleaved RNA product abundance: 0.969
- sequence text: "ACAGACGAAGGAGCCGCAAAGAAGTTATTAAGGGATGAATAATCCCTCAATCTAAATATCTCTCACTTATTTAAA"
  cleaved RNA product abundance: 0.193
- sequence text: "ACAGACGAAGGAGCCGCAAAGAAGTTATTAAGGGATGAATAATACCTCAATATTAATATCTCTCACTTATTTAAA"
  cleaved RNA product abundance: 0.0694

* * *

tested on: Bacillus subtilis; test: cleaved RNA product abundance (RNA/gDNA barcode ratio) relative to median wild-type variant (ratio to wild type); higher = more accumulation of the downstream cleavage product; details: experiment (reporter, strain, medium): exp 8a: truncated aprE reporter, strain BJT201 with 2% xylose (RNase J1 expressed); cleavage site: glnRA (positions -5 to +31 mutated)

- sequence text: "CGACATGTCCCGCTTCTTTCATTACTCCGTTAGCAACTGTTTTTCTATATACATTTACCTTTTAAGAGGAGGAAT"
  cleaved RNA product abundance: 0.594
- sequence text: "CGACATGTCCCGCTTCTTTCATTAATCCGTTAGCAACTGTTTTGCTATATATATTTATCTTTTAAGAGGAGGAAT"
  cleaved RNA product abundance: 1.3
- sequence text: "CGACATGTCCCGCTTCTTTCATTACTCCGTTAGCAACTGTTTTGATATATACATTTACCTTTTAAGAGGAGGAAT"
  cleaved RNA product abundance: 0.587
- sequence text: "CGACATGTCCCGCTTCTTTCATTAATCCGTTAGCAACTGTTTTGGTATATACATTTACCTTTTAAGAGGAGGAAT"
  cleaved RNA product abundance: 0.237
- sequence text: "CGACATGTCCCGCTTCTTTCATTAATCCGTTAGCAACTGTTTTGCTATATACATTTCCCATTTAAGAGGAGGAAT"
  cleaved RNA product abundance: 1.11
- sequence text: "CGACATGTCCCGCTTCTTTCATTAATCCGTTAGCAACTCTTTTACTATATACATTTACCTTTTAAGAGGAGGAAT"
  cleaved RNA product abundance: 0.579
- sequence text: "CGACATGTCCCGCTTCTTTCATTAATCCGTTAGCAACTGTTTAGCTAAATACATTTACCTTTTAAGAGGAGGAAT"
  cleaved RNA product abundance: 0.212
- sequence text: "CGACATGTCCCGCTTCTTTCATTAATCCGTTAGCAACAGTTTTGCTATATACATTTACTTTTTAAGAGGAGGAAT"
  cleaved RNA product abundance: 1.18
- sequence text: "CGACATGTCCCGCTTCTTTCATTAATCCGTTAGGAACTGTTTTGCTATATAGATTTACCTTTTAAGAGGAGGAAT"
  cleaved RNA product abundance: 0.191
- sequence text: "CGACATGTCCCGCTTCTTTCATTAATCCGTTAGCACCTGTTTTGCTATATATATTTACCTTTTAAGAGGAGGAAT"
  cleaved RNA product abundance: 1.44
- sequence text: "CGACATGTCCCGCTTCTTTCATTAATCCGTGAGCAACTGTTTTGCTATATACATTTAACTTTTAAGAGGAGGAAT"
  cleaved RNA product abundance: 0.854
- sequence text: "CGACATGTCCCGCTTCTTTCATTAATCCGTTAGCAACTGTTTTGGTACATACATTTACCTTTTAAGAGGAGGAAT"
  cleaved RNA product abundance: 0.119
- sequence text: "CGACATGTCCCGCTTCTTTCATTAATCCTTTACCAACTGTTTTGCTATATACATTTACCTTTTAAGAGGAGGAAT"
  cleaved RNA product abundance: 0.125
- sequence text: "CGACATGTCCCGCTTCTTTCATTACTCCGTTAGCAACTGTTTTGCTATATACATTTACATTTTAAGAGGAGGAAT"
  cleaved RNA product abundance: 1.39
- sequence text: "CGACATGTCCCGCTTCTTTCATTAATCCGTTAACAACTGTTTTGGTATATACATATAGCTTTTAAGAGGAGGAAT"
  cleaved RNA product abundance: 0.275
- sequence text: "CGACATGTCCCGCTTCTTTCATTAATCCGTTAGCAACTGTTTTGCTATATACACGTACCTTTTAAGAGGAGGAAT"
  cleaved RNA product abundance: 0.835
- sequence text: "CGACATGTCCCGCTTCTTTCATTAATCCGTTAGCAACTGTATTCCTATATACATTTACCTTTTAAGAGGAGGAAT"
  cleaved RNA product abundance: 0.45
- sequence text: "CGACATGTCCCGCTTCTTTCATTAATCCGTTAGCAACTGTTTTGCTATATAAATTAACCTTTTAAGAGGAGGAAT"
  cleaved RNA product abundance: 1.01
- sequence text: "CGACATGTCCCGCTTCTTTCATTAATCCGTTACCTACTGTTTTGCTATATACATTTACCTTTTAAGAGGAGGAAT"
  cleaved RNA product abundance: 0.443
- sequence text: "CGACATGTCCCGCTTCTTTCATTAATCCGTTCGAAACTGTTTTGCTATATACATTTACCTTTTAAGAGGAGGAAT"
  cleaved RNA product abundance: 0.347
- sequence text: "CGACATGTCCCGCTTCTTTCATTAATCCGTTAGCAACTGTTTTGCTATATCCATTTACCTTTTAAGAGGAGGAAT"
  cleaved RNA product abundance: 0.167
- sequence text: "CGACATGTCCCGCTTCTTTCATTAATCCGTTAGCTATTGTTTTGCTATATACATTTACCTTTTAAGAGGAGGAAT"
  cleaved RNA product abundance: 0.432
- sequence text: "CGACATGTCCCGCTTCTTTCATTAATCCATTAGCAACTGTTTTTCTATATACATTTACCTTTTAAGAGGAGGAAT"
  cleaved RNA product abundance: 0.319
